Tested on: Urochloa decumbens
Measurement description: Phytotoxicity against Urochloa decumbens pregerminated seeds assessed as inhibition of root biomass development at 5x10'-4 mol/l at 28 degC after 24 to 48 hr by sand based radicle elongation assay
Type: functional
inhibition at 500 µM vs 40%: at or above is Yes, below is No.

Entry smiles	Label
CC[C@H](C)N/C(C)=C1\C(=O)C=C(C)OC1=O	Yes
CC1=CC(=O)/C(=C(/C)Nc2cc([N+](=O)[O-])ccc2O)C(=O)O1	No
COC(=O)CN/C(C)=C1\C(=O)C=C(C)OC1=O	Yes
COC(=O)[C@H](C)N/C(C)=C1\C(=O)C=C(C)OC1=O	Yes
